Ref: the supplement of paper PMC6555819

- Tested on: PPARg:RXRa 30nM:10nM, anti-RXR (NR concentration 30 nM, RXRa partner concentration 10 nM)
- protocol.summary: PBM binding z-score (relative to random genomic background probes); higher = stronger binding; sequences stand for … in GC…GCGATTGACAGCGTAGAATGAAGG
measurement.label: PBM binding z-score

sequence.string: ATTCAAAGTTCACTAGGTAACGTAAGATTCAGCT
PBM binding z-score: 2.03

Name the reported PBM binding z-score value associated with the sequence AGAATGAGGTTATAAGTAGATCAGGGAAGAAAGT
1.34

Name the reported PBM binding z-score value associated with the sequence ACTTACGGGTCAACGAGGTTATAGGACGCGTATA
2.04

Name the reported PBM binding z-score value associated with the sequence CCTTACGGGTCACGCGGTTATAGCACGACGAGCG
2.58

Name the reported PBM binding z-score value associated with the sequence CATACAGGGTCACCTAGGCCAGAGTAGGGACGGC
2.1

Name the reported PBM binding z-score value associated with the sequence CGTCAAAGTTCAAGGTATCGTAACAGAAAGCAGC
1.75
